# Tested on: CAKI-1
# run_description: minimum viability across doses, drug alone, relative to DMSO (fraction); higher = less growth inhibition
# condition_description: treatment: drug alone; 5 days
Each entry below lists one item and its recorded minimum viability across doses value.

See these solved cases before continuing.
smiles_entry: CS(=O)(=O)O.O=C(Nc1cccc(Cl)c1)Nc1ncc(CCNc2ncnc3ccsc23)s1
test_target: CAKI-1
minimum viability across doses: 0.172
//
smiles_entry: CN1CCN(c2ccc([N+](=O)[O-])c3no[n+]([O-])c23)CC1
test_target: CAKI-1
minimum viability across doses: 0.881

(Q) Can you look up minimum viability across doses on CAKI-1 for `CC[C@@H]1C(=O)N(C)c2cnc(Nc3ccc(C(=O)N[C@H]4CC[C@H](N5CCN(CC6CC6)CC5)CC4)cc3OC)nc2N1C(C)C` ?
(A) 0.0881

(Q) Query the reported minimum viability across doses for CAKI-1; item: `Cc1cc2c(C(C)C)c(O)c(O)c(C=O)c2c(O)c1-c1c(C)cc2c(C(C)C)c(O)c(O)c(C=O)c2c1O`
(A) 0.121

(Q) Query for CAKI-1: what minimum viability across doses does the record show for `C[C@H](NC(=O)/C(C#N)=C/c1cccc(Br)n1)c1ccccc1` ?
(A) 0.371

(Q) Give the reported minimum viability across doses for `CCc1cc(Nc2nccc(-c3c(-c4ccc(OC)c(C(=O)Nc5c(F)cccc5F)c4)nc4ccccn34)n2)c(OC)cc1N1CCC(N2CCN(S(C)(=O)=O)CC2)CC1` (system: CAKI-1).
(A) 0.635

(Q) Form entry - test system: CAKI-1; read-out: minimum viability across doses; compound: `NC1(Cc2ccc(Cl)cc2)CCN(c2ncnc3[nH]ccc23)CC1`
(A) 0.348

###

# Tested on: CAKI-1
# run_description: GI50 of drug in presence of dasatinib; higher = less potent
# condition_description: treatment: drug + dasatinib (fixed dose, not stated); 5 days
metric_name: log10 GI50 of drug (log10 of the value in nM)
Note: values are log10 of GI50 of drug expressed in nM.

compound: Nc1ncnc2c1c(-c1cccc(OCc3ccccc3)c1)cn2[C@H]1C[C@H](CN2CCCC2)C1 [NVP-ADW742] + Cc1nc(Nc2ncc(C(=O)Nc3c(C)cccc3Cl)s2)cc(N2CCN(CCO)CC2)n1 [dasatinib]
test_target: CAKI-1
log10 GI50 of drug: 3.11
--
compound: COc1cc2nccc(Oc3ccc(NC(=O)NC4CC4)c(Cl)c3)c2cc1C(N)=O [E7080 (Lenvatinib)] + Cc1nc(Nc2ncc(C(=O)Nc3c(C)cccc3Cl)s2)cc(N2CCN(CCO)CC2)n1 [dasatinib]
test_target: CAKI-1
log10 GI50 of drug: 2.63
--
compound: O=C(Nc1cc(C(F)(F)F)cc(C(F)(F)F)c1)c1cc(Cl)ccc1O [IMD 0354] + Cc1nc(Nc2ncc(C(=O)Nc3c(C)cccc3Cl)s2)cc(N2CCN(CCO)CC2)n1 [dasatinib]
test_target: CAKI-1
log10 GI50 of drug: 2.68
--
compound: NC(=O)Nc1sc(-c2ccc(F)cc2)cc1C(N)=O [TPCA-1] + Cc1nc(Nc2ncc(C(=O)Nc3c(C)cccc3Cl)s2)cc(N2CCN(CCO)CC2)n1 [dasatinib]
test_target: CAKI-1
log10 GI50 of drug: 2.66

(Q) // lookup log10 GI50 of drug for CC(C)CC(=O)Nc1n[nH]c2c1CN(C(=O)C1CCN(C)CC1)C2(C)C + Cc1nc(Nc2ncc(C(=O)Nc3c(C)cccc3Cl)s2)cc(N2CCN(CCO)CC2)n1 [dasatinib]
(A) 2.93

(Q) Which log10 GI50 of drug value belongs to COc1cc(Nc2ncc(F)c(Nc3ccc4c(n3)NC(=O)C(C)(C)O4)n2)cc(OC)c1OC.O=S(=O)(O)c1ccccc1 [R406] + Cc1nc(Nc2ncc(C(=O)Nc3c(C)cccc3Cl)s2)cc(N2CCN(CCO)CC2)n1 [dasatinib] ?
(A) 2.38

(Q) Which log10 GI50 of drug is reported for this compound? CC[C@@H]1C(=O)N(C)c2cnc(Nc3ccc(C(=O)NC4CCN(C)CC4)cc3OC)nc2N1C1CCCC1 [BI 2536] + Cc1nc(Nc2ncc(C(=O)Nc3c(C)cccc3Cl)s2)cc(N2CCN(CCO)CC2)n1 [dasatinib]
(A) 0.89

###

# System: A498
# run_description: GI50 of drug in presence of dasatinib; higher = less potent
# condition_description: treatment: drug + dasatinib (fixed dose, not stated); 5 days
metric_name: GI50 of drug (µM)
Give the value, in units of µM, as a plain number.

compound: Cc1c(CN2CCN(C(=O)[C@H](C)O)CC2)sc2c(N3CCOCC3)nc(-c3cnc(N)nc3)nc12 [GDC-0980 (RG7422)] + Cc1nc(Nc2ncc(C(=O)Nc3c(C)cccc3Cl)s2)cc(N2CCN(CCO)CC2)n1
unit_symbol: µM
GI50 of drug: 0.658

(Q) What measured GI50 of drug goes with CCOc1cc2ncc(C#N)c(Nc3ccc(OCc4ccccn4)c(Cl)c3)c2cc1NC(=O)/C=C/CN(C)C [Neratinib (HKI-272)] + Cc1nc(Nc2ncc(C(=O)Nc3c(C)cccc3Cl)s2)cc(N2CCN(CCO)CC2)n1 ?
(A) 6.99

###

# Tested on: TK-10
# run_description: minimum viability across doses, drug + dasatinib, relative to DMSO (fraction); higher = less growth inhibition
# condition_description: treatment: drug + dasatinib (fixed dose, not stated); 5 days
metric_name: minimum viability across doses

Would you please look over these solved cases?
compound: CN1CCN(c2ccc([N+](=O)[O-])c3no[n+]([O-])c23)CC1 + Cc1nc(Nc2ncc(C(=O)Nc3c(C)cccc3Cl)s2)cc(N2CCN(CCO)CC2)n1
observed_value: 0.64
--
compound: CO[C@H]1CC2CC[C@@H](C)[C@@](O)(O2)C(=O)C(=O)N2CCCC[C@H]2C(=O)O[C@H]([C@H](C)C[C@@H]2CCC(OC(=O)C(C)(CO)CO)[C@H](OC)C2)CC(=O)[C@H](C)/C=C(\C)[C@@H](O)[C@@H](OC)C(=O)[C@H](C)C[C@H](C)/C=C/C=C/C=C/1C (stereo in doubt) [Temsirolimus (Torisel)] + Cc1nc(Nc2ncc(C(=O)Nc3c(C)cccc3Cl)s2)cc(N2CCN(CCO)CC2)n1
observed_value: 0.393
--
compound: O=C(NOC[C@H](O)CO)c1ccc(F)c(F)c1Nc1ccc(I)cc1F + Cc1nc(Nc2ncc(C(=O)Nc3c(C)cccc3Cl)s2)cc(N2CCN(CCO)CC2)n1
observed_value: 0.296
--
compound: Cc1cc(Nc2cc(CN3CCOCC3)c3nc(C)c(Cc4ccc(Cl)cc4F)n3n2)[nH]n1 + Cc1nc(Nc2ncc(C(=O)Nc3c(C)cccc3Cl)s2)cc(N2CCN(CCO)CC2)n1
observed_value: 0.0211
--
compound: COCC[n+]1c2c(n(Cc3cnccn3)c1C)C(=O)c1ccccc1C2=O [YM155] + Cc1nc(Nc2ncc(C(=O)Nc3c(C)cccc3Cl)s2)cc(N2CCN(CCO)CC2)n1
observed_value: 0.0206

(Q) Tell me the measured minimum viability across doses of Nc1cc(C(F)(F)F)c(-c2cc(N3CCOCC3)nc(N3CCOCC3)n2)cn1 [BKM120 (NVP-BKM120)] + Cc1nc(Nc2ncc(C(=O)Nc3c(C)cccc3Cl)s2)cc(N2CCN(CCO)CC2)n1 , please.
(A) 0.0741

(Q) Value lookup for minimum viability across doses; key = CCC[C@H](NC(=O)/C(C#N)=C/c1cccc(Br)n1)c1ccccc1 [WP1130] + Cc1nc(Nc2ncc(C(=O)Nc3c(C)cccc3Cl)s2)cc(N2CCN(CCO)CC2)n1
(A) 0.191

(Q) Look up minimum viability across doses: Cc1cc(C(C)Nc2ccccc2)c2nc(N3CCOCC3)cc(=O)n2c1 (centres undefined) [TGX-221] + Cc1nc(Nc2ncc(C(=O)Nc3c(C)cccc3Cl)s2)cc(N2CCN(CCO)CC2)n1
(A) 0.554

(Q) State the recorded minimum viability across doses for this entry: CCN1CCN(c2ccc(Nc3cc(N(C)C(=O)Nc4c(Cl)c(OC)cc(OC)c4Cl)ncn3)cc2)CC1 [BGJ398 (NVP-BGJ398)] + Cc1nc(Nc2ncc(C(=O)Nc3c(C)cccc3Cl)s2)cc(N2CCN(CCO)CC2)n1
(A) 0.221

###

# Tested on: 786-O
# run_description: GI50, drug alone; higher = less potent
# condition_description: treatment: drug alone; 5 days
metric_name: GI50, drug alone

# annotated cases, reported GI50, drug alone shown
compound: C#Cc1cccc(Nc2ncnc3cc(OCCOC)c(OCCOC)cc23)c1.Cl [Erlotinib HCl]
test_target: 786-O
GI50, drug alone: > 10 µM
--
compound: CCc1cc(Nc2nccc(-c3c(-c4ccc(OC)c(C(=O)Nc5c(F)cccc5F)c4)nc4ccccn34)n2)c(OC)cc1N1CCC(N2CCN(S(C)(=O)=O)CC2)CC1
test_target: 786-O
GI50, drug alone: > 10 µM
--
compound: COc1cc2nccc(Oc3ccc(NC(=O)NC4CC4)c(Cl)c3)c2cc1C(N)=O [E7080 (Lenvatinib)]
test_target: 786-O
GI50, drug alone: > 10 µM

// moving on: another record for GI50, drug alone
(Q) Look up GI50, drug alone for this compound: Oc1cc(O)cc(/C=C/c2ccc(O)c(O)c2)c1 [Piceatannol]
(A) 2.37 µM
